Assign IC50 to each entry below.
- System: 653999-131-R-J2-PDC complex spheroids, growth % test/control;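 note: spheroids exposed to agents for seven days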
- MEASUREMENT DESCRIPTION: Anticancer human tumor 653999-131-R-J2-PDC patient-derived lung adenocarcinoma cell line growth inhibition [AhR]
- MEASUREMENT SETUP: curve of first compound; second compound 10 µM
Number in nM, nothing else.

Data request: So what does the record say about IC50 for Nc1ccccc1NC(=O)c1ccc(CNC(=O)OCc2cccnc2)cc1 + CC(CO)NC(=O)c1cc(-c2ccc(Cl)cc2)nn(-c2cnn(C)c2)c1=O ?
Data returned: 2660

Data request: Now consider O=C(C=Cn1cnc(-c2cc(C(F)(F)F)cc(C(F)(F)F)c2)n1)NNc1cnccn1 + Cc1cncc(-c2nc(NCCc3c[nH]c4ccccc34)c3ncn(C(C)C)c3n2)c1 and answer again.
Data returned: 48.5

Data request: Moving on to CC[C@@]1(O)C(=O)OCc2c1cc1n(c2=O)Cc2cc3c(CN(C)C)c(O)ccc3nc2-1 + CC(CO)NC(=O)c1cc(-c2ccc(Cl)cc2)nn(-c2cnn(C)c2)c1=O
Data returned: 21

Origin of measurements: PubChem BioAssay AID1919000
